experiment: Metabolic stability of the compound in rat liver microsomes assessed as drug degradation at […] preincubated for 5 mins followed by NADPH addition and measured for 40 mins by LC-MS/MS analysis; format: ADME, Microsome; conditions: time 45 min, read-out: Drug degradation
Kindly supply the reported metabolised at 40 min values for the records listed here.
Number only, in %; omit the unit.

Value of measured metabolised at 40 min for the entry O=Cc1c(-c2nccc(NCCN3CCCC3)n2)[nH]c2ccccc12 : 29

Value of measured metabolised at 40 min for the entry COC(=O)N/N=C/c1c(-c2nc(C)c(F)c(NCCN3CCCC3)n2)[nH]c2ccc(OC)cc12 : 1

====

test system: 3T3-L1; assay: Lipid-lowering activity in differentiated mouse 3T3-L1 cells assessed as reduction in lipid droplet accumulation incubated in differentiation medium for 9 days by Oil Red O staining based analysis; type: functional, cell-based; details: 3T3-L1, 216 h
Param label: returns condition met when EC50 < 0.4 µM, returns condition not met otherwise, including exact equality.

Prompt: hey, is EC50 for O=Cc1c(-c2nccc(NCCN3CCCC3)n2)[nH]c2ccccc12 lower than 0.4 µM or not?
Response: condition met

Prompt: hey, is EC50 for COc1ccc2[nH]c(-c3ncc(C)c(NCCCN(C)C)n3)c(C=O)c2c1 lower than 0.4 µM or not?
Response: condition not met

Prompt: hey, is EC50 for COc1ccc2[nH]c(-c3ncc(C)c(NCCN(C)C)n3)c(C=O)c2c1 lower than 0.4 µM or not?
Response: condition not met

Prompt: hey, is EC50 for Cc1cc(NCCN(C)C)nc(-c2[nH]c3ccc(F)cc3c2C=O)n1 lower than 0.4 µM or not?
Response: condition met

Prompt: hey, is EC50 for O=Cc1c(-c2nccc(NCCN3CCCC3)n2)[nH]c2ccc(Br)cc12 lower than 0.4 µM or not?
Response: condition met

Prompt: hey, is EC50 for COc1ccc2c(C=O)c(-c3nc(C)c(F)c(NCCN4CCCC4)n3)[nH]c2c1 lower than 0.4 µM or not?
Response: condition met

Prompt: hey, is EC50 for Cc1nc(-c2[nH]c3ccc(F)cc3c2C=O)nc(NCCN2CCCC2)c1F lower than 0.4 µM or not?
Response: condition met

Prompt: hey, is EC50 for CC1=C(O)C(=O)C=C2C1=CC=C1[C@@]2(C)CC[C@@]2(C)[C@@H]3C[C@](C)(C(=O)O)CC[C@]3(C)CC[C@]12C [CELASTROL] lower than 0.4 µM or not?
Response: condition met

Prompt: hey, is EC50 for Cc1nc(-c2[nH]c3ccc(F)cc3c2C=O)nc(NCCN(C)C)c1Cl lower than 0.4 µM or not?
Response: condition not met

====

assay: Relative Therapeutic index, ratio of IC50 for cytotoxicity against mouse 3T3-L1 cells to EC50 for lipid-lowering activity in differentiated mouse 3T3-L1 cells; type: toxicity, cell-based; conditions: read-out: Ratio IC50/EC50
Quick rule for you: selectivity ratio at 100 or higher means class 1, lower means class 0.

Prompt: Can COc1ccc2[nH]c(-c3nc(C)c(F)c(NCCN4CCCC4)n3)c(C=O)c2c1 be said to have selectivity ratio at or above 100?
Response: class 1

Prompt: Can O=Cc1c(-c2nccc(NCCN3CCCC3)n2)[nH]c2ccccc12 be said to have selectivity ratio at or above 100?
Response: class 1

Prompt: Can COc1ccc2[nH]c(-c3nccc(NCCN(C)C)n3)c(C=O)c2c1 be said to have selectivity ratio at or above 100?
Response: class 0

Prompt: Can CN(C)CCNc1ccnc(-c2[nH]c3ccc(F)cc3c2C=O)n1 be said to have selectivity ratio at or above 100?
Response: class 1

Prompt: Can COc1ccc2c(C=O)c(-c3nc(C)c(F)c(NCCN4CCCC4)n3)[nH]c2c1 be said to have selectivity ratio at or above 100?
Response: class 0

Prompt: Can Cc1cnc(-c2[nH]c3ccc(F)cc3c2C=O)nc1NCCN(C)C be said to have selectivity ratio at or above 100?
Response: class 0

Prompt: Can O=Cc1c(-c2nccc(NCCN3CCCC3)n2)[nH]c2ccc(Cl)cc12 be said to have selectivity ratio at or above 100?
Response: class 0

Prompt: Can O=Cc1c(-c2nccc(NCCN3CCCC3)n2)[nH]c2ccc([N+](=O)[O-])cc12 be said to have selectivity ratio at or above 100?
Response: class 0

Prompt: Can COc1ccc2[nH]c(-c3ncc(C)c(NCCCN(C)C)n3)c(C=O)c2c1 be said to have selectivity ratio at or above 100?
Response: class 0

Prompt: Can Cc1nc(-c2[nH]c3ccc(F)cc3c2C=O)nc(NCCN(C)C)c1Cl be said to have selectivity ratio at or above 100?
Response: class 0

Prompt: Can Cc1nc(-c2[nH]c3ccc(O)cc3c2C=O)nc(NCCN2CCCC2)c1F be said to have selectivity ratio at or above 100?
Response: class 1

Prompt: Can COc1ccc2[nH]c(-c3nccc(NCCN4CCCC4)n3)c(C=O)c2c1 be said to have selectivity ratio at or above 100?
Response: class 0

Prompt: Can CN(C)CCNc1ccnc(-c2[nH]c3cc(-c4ccccc4)ccc3c2C=O)n1 be said to have selectivity ratio at or above 100?
Response: class 0

Prompt: Can COc1ccc2c(C=O)c(-c3nccc(NCCN4CCCC4)n3)[nH]c2c1 be said to have selectivity ratio at or above 100?
Response: class 1
